System: human liver microsomes, half-life, LC-MS/MS
Assay: qHTS Assay to Find Inhibitors of T. brucei phosphofructokinase: Human Liver Microsome Stability
Settings: at 1 µM; active compounds read high
Measure: half-life

q: Recorded half-life for "O=C(Cc1ccc(Cl)c(Cl)c1)Nc1ccc(S(=O)(=O)Nc2ccon2)cc1" with human liver microsomes, half-life, LC-MS/MS, please?
a: 5.5 h
